Tested on: Botrytis cinerea
assay-procedure: Spore germination test
Format: cell-based
study-conditions: BC, 40 ppm, 48 hours
endpoint-label: Spore Germination Rating

                                   compound      study_target  meas_value
0  COc1ccc(Oc2nsnc(Cl)c2=O)cc1 [Compound 5]  Botrytis cinerea    0 (0-10)
1   Cc1ccc(Oc2nsnc(Cl)c2=O)cc1 [Compound 3]  Botrytis cinerea    0 (0-10)
2  Cc1cc(Oc2nsnc(Cl)c2=O)ccc1Cl [Compound 54]  Botrytis cinerea   1 (10-40)
3  CCCCOc1ccc(Oc2nsnc(Cl)c2=O)cc1 [Compound 6]  Botrytis cinerea  4 (80-100)
4  O=C(Nc1ccccc1)Nc1ccc(Oc2nsnc(Cl)c2=O)cc1 [Compound 29]  Botrytis cinerea   2 (40-60)

Okay, now this compound:
// query I'd like to know its Spore Germination Rating. The compound in question is O=c1c(Cl)nsnc1Oc1ccc(Br)cc1 [Compound 15]
// result 0 (0-10)

###

The following compounds are listed with their measured inhibition at 40 ppm values.
Test system: Pythium ultimum
assay-procedure: Mycelial growth test
Assay type: cell-based
study-conditions: Globisporangium ultimum, 72 h, PU, 40 ppm, read-out: Percent Fungus Growth Inhibition
Give your result in % as a bare value.

Past entries and their recorded results:
>>> print(df.to_string())
                                   compound     study_target        endpoint_label  u  meas_value
0  O=c1c(Cl)nsnc1Oc1c(Cl)c(Cl)c(Cl)c(Cl)c1Cl [Compound 31]  Pythium ultimum  inhibition at 40 ppm  %           0
1  O=c1c(Cl)nsnc1Oc1ccc([N+](=O)[O-])cc1 [Compound 9]  Pythium ultimum  inhibition at 40 ppm  %         100
2  N#Cc1ccc(Oc2nsnc(Cl)c2=O)cc1 [Compound 10]  Pythium ultimum  inhibition at 40 ppm  %          64
3  Cc1ccc(Cl)c(Oc2nsnc(Cl)c2=O)c1 [Compound 56]  Pythium ultimum  inhibition at 40 ppm  %         100
4  O=c1c(Cl)nsnc1Oc1ccc(Cl)cc1Cl [Compound 17]  Pythium ultimum  inhibition at 40 ppm  %         100

// query I'd like to know its inhibition at 40 ppm. The compound in question is Cc1ccc(Oc2nsnc(Cl)c2=O)c(Br)c1 [Compound 57]
// result 100

// query Could you do the same for N#CCc1ccc(Oc2nsnc(Cl)c2=O)cc1 [Compound 46] , please?
// result 100

// query Could you do the same for Nc1ccc(Oc2nsnc(Cl)c2=O)cc1 [Compound 26] , please?
// result 100

// query Could you do the same for O=c1c(Cl)nsnc1Oc1ccc(Br)cc1 [Compound 15] , please?
// result 76

// query Could you do the same for CSc1ccc(Oc2nsnc(Cl)c2=O)cc1 [Compound 39] , please?
// result 100

// query Could you do the same for O=c1c(Cl)nsnc1Oc1ccccc1Br [Compound 34] , please?
// result 100

###

The following molecules are listed with their measured Spore Germination Rating values.
Tested on: Phytophthora infestans
Format: cell-based
study-conditions: PI, 40 ppm, 48 hours

// query I'd like to know its Spore Germination Rating. The molecule in question is O=c1c(Cl)nsnc1Oc1c(Cl)c(Cl)c(Cl)c(Cl)c1Cl
// result 2 (40-60)

// query Could you do the same for N#CCc1ccc(Oc2nsnc(Cl)c2=O)cc1 , please?
// result 0 (0-10)

// query Could you do the same for CCOC(=O)c1ccc(Oc2nsnc(Cl)c2=O)cc1 , please?
// result 0 (0-10)

// query Could you do the same for Nc1ccc(Oc2nsnc(Cl)c2=O)cc1 , please?
// result 2 (40-60)

// query Could you do the same for O=c1c(Cl)nsnc1Oc1ccc(O)cc1 , please?
// result 0 (0-10)

// query Could you do the same for O=c1c(Cl)nsnc1Oc1c(Cl)cccc1Cl , please?
// result 0 (0-10)

###

Tested on: Pyricularia oryzae
assay-procedure: microbe, parasite or virus in culture
Assay type: cell-based
study-conditions: Pyricularia oryzae, 72 h, read-out: Percent Fungus Growth Inhibition, PO, 20 ppm, 72 hours
The following compounds are listed with their measured inhibition at 20 ppm values.
Field note: include the unit after the figure.

Past entries and their recorded results:
                      smiles_representation  meas_value
0           Cc1cc(Oc2nsnc(Cl)c2=O)cc(C)c1Br         43%
1  O=C(Nc1ccccc1)Oc1ccc(Oc2nsnc(Cl)c2=O)cc1         61%
2  O=C(OCc1ccccc1)Oc1ccc(Oc2nsnc(Cl)c2=O)cc1         23%
3         O=c1c(Cl)nsnc1Oc1cccc(C(F)(F)F)c1         93%

Okay, now this compound:
// query I'd like to know its inhibition at 20 ppm. The compound in question is CC(=O)c1ccccc1Oc1nsnc(Cl)c1=O
// result 53%

###

System: Venturia inaequalis
assay-procedure: Spore germination test
Type: cell-based
study-conditions: VI, 10 ppm, 48 hours
Procedure: VI = Venturia inaequalis The test chemical was dissolved or suspended in acetone in an amount such that 0.8 ml of the resulting suspension or solution, mixed with 40 ml water agar produced a water agar solution containing 40, 10, 2.5 and 1 ppm of test chemical. The resulting agar solution, at 50° C., was then divided equally between two sterile petri dishes, each having four separated quadrants, and allowed to solidify. […] Readings were then taken and the percentage of germinated spores calculated. […]
The following compounds are listed with their measured Spore Germination Rating values.

                      compound  meas_value
0  Cc1cccc(C)c1Oc1nsnc(Cl)c1=O    0 (0-10)

// query Param readout = Spore Germination Rating; param system = Venturia inaequalis; param query = Cc1cc(Cl)c(Oc2nsnc(Cl)c2=O)cc1C ; response: value
// result 0 (0-10)

// query Could you do the same for O=c1c(Cl)nsnc1Oc1ccccc1Cl , please?
// result 0 (0-10)

// query Could you do the same for O=c1c(Cl)nsnc1Oc1ccccc1Br , please?
// result 0 (0-10)

// query Could you do the same for O=c1c(Cl)nsnc1Oc1cccc(Cl)c1Cl , please?
// result 0 (0-10)

// query Could you do the same for O=c1c(Cl)nsnc1Oc1ccc(Cl)c(Cl)c1 , please?
// result 0 (0-10)

// query Could you do the same for O=c1c(Cl)nsnc1Oc1c(Cl)c(Cl)c(Cl)c(Cl)c1Cl , please?
// result 0 (0-10)

// query Could you do the same for O=c1c(Cl)nsnc1Oc1cccc(C(F)(F)F)c1 , please?
// result 0 (0-10)

// query Could you do the same for O=c1c(Cl)nsnc1Oc1ccc(Cl)cc1 , please?
// result 0 (0-10)

// query Could you do the same for O=c1c(Cl)nsnc1Oc1c(Cl)cc(Cl)cc1Cl , please?
// result 0 (0-10)

// query Could you do the same for CC(=O)Nc1ccc(Oc2nsnc(Cl)c2=O)cc1 , please?
// result 2 (40-60)

// query Could you do the same for N#Cc1ccc(Oc2nsnc(Cl)c2=O)cc1 , please?
// result 0 (0-10)

// query Could you do the same for Cc1ccc(Oc2nsnc(Cl)c2=O)c(C)c1 , please?
// result 1 (10-40)

###

The following molecules are listed with their measured Spore Germination Rating values.
Tested on: Alternaria solani
assay-procedure: Spore germination test
Assay type: cell-based
study-conditions: AS, 40 ppm, 48 hours

                      smiles_representation  meas_value
0  O=C(Nc1ccccc1)Oc1ccc(Oc2nsnc(Cl)c2=O)cc1   3 (60-80)

// query Param readout = Spore Germination Rating; param system = Alternaria solani; param query = O=c1c(Cl)nsnc1Oc1ccc(Cl)cc1Cl ; response: value
// result 0 (0-10)

// query Could you do the same for Cc1cc(Oc2nsnc(Cl)c2=O)cc(C)c1Cl , please?
// result 4 (80-100)

// query Could you do the same for Cc1ccc(Oc2nsnc(Cl)c2=O)c(Br)c1 , please?
// result 0 (0-10)

// query Could you do the same for Nc1ccc(Oc2nsnc(Cl)c2=O)cc1 , please?
// result 0 (0-10)

// query Could you do the same for COc1ccc(Oc2nsnc(Cl)c2=O)cc1 , please?
// result 0 (0-10)

// query Could you do the same for Cc1ccc(Oc2nsnc(Cl)c2=O)cc1 , please?
// result 0 (0-10)

// query Could you do the same for O=c1c(Cl)nsnc1Oc1c(Cl)c(Cl)c(Cl)c(Cl)c1Cl , please?
// result 0 (0-10)

// query Could you do the same for O=c1c(Cl)nsnc1Oc1ccc([N+](=O)[O-])cc1Cl , please?
// result 0 (0-10)

// query Could you do the same for N#Cc1ccc(Oc2nsnc(Cl)c2=O)cc1 , please?
// result 1 (10-40)

// query Could you do the same for Cc1cc(Oc2nsnc(Cl)c2=O)cc(C)c1Br , please?
// result 3 (60-80)

###

Tested on: Botrytis cinerea
assay-procedure: Spore germination test
Type: cell-based
study-conditions: BC, 40 ppm, 48 hours
The following compounds are listed with their measured Spore Germination Rating values.

Past entries and their recorded results:
                                   compound  meas_value
0  Cc1cc(Cl)ccc1Oc1nsnc(Cl)c1=O [Compound 55]   1 (10-40)
1  O=c1c(Cl)nsnc1Oc1c(Cl)c(Cl)c(Cl)c(Cl)c1Cl [Compound 31]    0 (0-10)

// query I'd like to know its Spore Germination Rating. The compound in question is Cc1cc(Oc2nsnc(Cl)c2=O)cc(C)c1Cl [Compound 59]
// result 3 (60-80)

// query Could you do the same for O=c1c(Cl)nsnc1Oc1ccc(Cl)cc1 [Compound 12] , please?
// result 0 (0-10)

// query Could you do the same for O=c1c(Cl)nsnc1Oc1cccc(Cl)c1Cl [Compound 19] , please?
// result 0 (0-10)

// query Could you do the same for O=c1c(Cl)nsnc1Oc1cccc2ccccc12 [Compound 32] , please?
// result 0 (0-10)

// query Could you do the same for Cc1cccc(C)c1Oc1nsnc(Cl)c1=O [Compound 24] , please?
// result 0 (0-10)

// query Could you do the same for CCOC(=O)c1ccc(Oc2nsnc(Cl)c2=O)cc1 [Compound 7] , please?
// result 3 (60-80)

// query Could you do the same for CC(=O)Nc1ccccc1Oc1nsnc(Cl)c1=O [Compound 43] , please?
// result 3 (60-80)

// query Could you do the same for O=c1c(Cl)nsnc1Oc1ccc(Cl)c(Cl)c1 [Compound 16] , please?
// result 1 (10-40)
